- System: NCI-H226
- assay.text: NCI tumour cell line growth inhibition, 48 h
Active and inactive are the calls of the source. Rule as the data show it: active = GI50 up to about 1.1 µM and inactive = higher.
For each entry below, report its GI50 value.

Field: GI50. Fill in for each record below.
1. N=C1NC(c2ccc(Cl)cc2)=CC(c2cccc(Cl)c2)S1 (stereo unspecified)
2. CC(=O)c1ccc(OCC(O)CO)cc1 (stereo unspecified)
3. CN1CN(c2ccccc2)C2(CCN(Cc3nc4ccccc4s3)CC2)C1=O

**Result**
["26.7 µM (inactive)", "> 100 µM (inactive)", "16.4 µM (inactive)"]

---

- Test system: OVCAR-5
- assay.text: NCI tumour cell line growth inhibition, 48 h
Active and inactive are the calls of the source. Rule as the data show it: active = GI50 up to about 1.1 µM and inactive = higher.
metric: GI50

[
  {
    "molecule": "COc1ccc(CC2(Cc3ccc(OC)cc3)CCOC2=O)cc1",
    "subject.of.test": "OVCAR-5",
    "GI50": "> 100 µM (inactive)"
  },
  {
    "molecule": "CSc1nncc2[nH]c(C)nc12",
    "subject.of.test": "OVCAR-5",
    "GI50": "> 100 µM (inactive)"
  },
  {
    "molecule": "NS(=O)(=O)c1nnc(NC(=S)NC(=O)Nc2ccc(Cl)c(Cl)c2)s1",
    "subject.of.test": "OVCAR-5",
    "GI50": "25.1 µM (inactive)"
  }
]

Field: GI50. Fill in for each record below.
1. CCCCCCCCC/C=C1\CC(CO)(COC(=O)c2ccccc2)OC1=O (centres undefined)
2. CCOC(=O)C(Cl)(NC(=O)OCc1ccccc1)C(F)(F)F (centres undefined)
3. CSC(=N/C=C/c1ccccc1)SC
4. NC(CO)C(=O)NCC(=O)O (centres undefined)
5. O=C(NCCN(CCNC(=O)c1cccc(O)c1O)CCNC(=O)c1cccc(O)c1O)c1cccc(O)c1O
6. C(=N\c1ccc(-c2nc3ccccc3[nH]2)cc1)/c1cccs1

**Result**
15.9 µM (inactive)
> 100 µM (inactive)
> 100 µM (inactive)
> 100 µM (inactive)
66.2 µM (inactive)
> 100 µM (inactive)

---

- System: OVCAR-5
- assay.text: NCI tumour cell line growth inhibition, 48 h
Active and inactive are the calls of the source. Rule as the data show it: active = GI50 up to about 1.1 µM and inactive = higher.
metric: GI50

[
  {
    "compound": "COC(=O)c1ccccc1C1CN=NC12Cc1c(C)c3c(c(C)c1C2=O)CCC3 (stereo not drawn)",
    "reading": "> 100 µM (inactive)"
  },
  {
    "compound": "CC(C)(C)COC1C2(OCCO2)C2CCC1(C)C2(C)C (stereo not drawn)",
    "reading": "28.9 µM (inactive)"
  }
]

Field: GI50. Fill in for each record below.
1. NC(=O)C(c1ccccc1)N1OC2C(=O)N(c3cccc4ccccc34)C(=O)C2C1c1c2ccccc2c(Cl)c2ccccc12 (stereo not drawn)
2. CC1=NN2C(=N)/C(=C/c3ccco3)C(=O)N=C2S1
3. CCO/C(CCn1[nH]c(=O)c(Cl)c(Cl)c1=O)=N\NC(=O)C(=O)NN

**Result**
1. 9.66 µM (inactive)
2. > 100 µM (inactive)
3. > 100 µM (inactive)

Field: GI50. Fill in for each record below.
1. Cc1cccc(NC(=O)Cc2nc3ccccc3s2)c1C
2. COC(=O)C1CC/C(=N\c2cccc(C(F)(F)F)c2)N1 (stereo not drawn)
3. C/C(=N\O)C1CC2C=C(C#N)C1N(Cc1ccccc1)C2 (stereo not drawn)

**Result**
["> 100 µM (inactive)", "> 100 µM (inactive)", "> 100 µM (inactive)"]

Field: GI50. Fill in for each record below.
1. CC1=C(C#N)c2nc3ccccc3n2C(=O)C1(C)CCO (stereo not drawn)
2. COc1ccc(C(=O)N=C2N(c3ccccc3)C(=N/c3ccccc3)/C(=N\c3ccccc3)N2c2ccccc2)cc1
3. COC(=O)[C@]1(c2ccc(N(C)C)cc2OC)C[C@@H]2CCCN(CCc3c1[nH]c1ccccc31)C2

**Result**
1. > 100 µM (inactive)
2. > 75.7 µM (inactive)
3. > 60.4 µM (inactive)

Field: GI50. Fill in for each record below.
1. COc1cc(/C=C2\C(=O)N(c3cccc([N+](=O)[O-])c3)C(c3ccccc3)S2(=O)=O)cc(OC)c1OC (stereo not drawn)
2. COc1ccc(/C=C/C(=O)OC2CC34CCNC35CC(OC5(OC)C2OC)c2ccc(OC)c(O)c24)cc1O (stereo not drawn)

**Result**
1. > 100 µM (inactive)
2. > 100 µM (inactive)
